- Test system: Plasmodium berghei
- assay summary: Screen against P. berghei liver stage (PbLuc), transformed with Luciferase, at 10uM
- Type: functional, HepG2
- assay conditions: tested at 10 uM
In all, about 69,000 compounds went through this assay and about 8,600 (12%) showed an effect of 50% or more. For the sample, strong results were picked, then their nearest neighbours and some compounds at random.
Quick rule for you: INHIBITION under 50% gets yes, anything else gets no.

In: Item `Cc1cccc(-n2cnc(Cl)c2CO)c1` : INHIBITION beneath 50%, strictly?
Out: yes

In: A record lists CN(C)C(=O)C1CCCN1CCCNC(=O)c1cccc2[nH]ncc12 (configuration not stated) . Is its INHIBITION below 50%?
Out: yes

In: Dear reviewer, please state whether `CNC(=O)c1cccc(CCNC(=O)N2CCc3ccccc3C2)c1` has INHIBITION strictly beneath 50%.
Out: yes

In: Does CCOCC(=O)N1CCC2(CC1)COC(COCc1ccccn1)C2 (configuration not stated) have INHIBITION strictly under 50%?
Out: yes

In: Does the reported INHIBITION of `C=C(C)CN1CCC(NC(=O)NCCc2ccc(N(C)C)cc2)CC1` stay below 50%?
Out: no

In: Report whether reported INHIBITION is lower than 50% (strictly) for `OCc1c(Cl)ncn1-c1ccccc1`
Out: yes

In: Please check: INHIBITION for `NC(=O)c1cccc(CCNC(=O)N2CCCC2)c1` , strictly under 50% or not?
Out: no

###

- Test system: Plasmodium berghei
- assay summary: Screen against P. berghei liver stage (PbLuc), transformed with Luciferase, at 10uM
- Type: functional, HepG2
- assay conditions: tested at 10 uM
Out of some 69,000 compounds screened, about 8,600 (12%) showed an effect of 50% or more. The list comes from a sample in which strong results are over-represented; it also holds close analogues and randomly drawn compounds.
endpoint name: INHIBITION (%)
Please reply with the bare figure in % and do not write the unit itself.

In: Identify the reported INHIBITION for the following entry. CC1CCN(CCCNC(=O)NC(C)c2nncn2C)CC1 (centres undefined)
Out: 52.3

In: Please indicate INHIBITION recorded for `Cc1cccc(CN2CCN(C(=O)c3cccnc3O)CC2)c1`
Out: 11.2

In: Given `Cn1nc2c(cc1=O)CN(Cc1nc(-c3ccsc3)no1)CC2` , respond with its INHIBITION.
Out: -7.31

In: Tell me its INHIBITION given `CN(CCn1nc2ccccn2c1=O)CC(=O)N(C)C1CCCCC1` as the entry.
Out: -111

In: State its INHIBITION for this compound: CN(C)C(=O)COC1COC2(CCN(c3cccc(F)c3)CC2)C1 (centres undefined)
Out: 42.7

In: Please report INHIBITION for the following compound: CC(=O)N(Cc1noc(C)n1)C1CCN(CC2(O)CCCCC2)C1 (centres undefined)
Out: 33.7

In: Return INHIBITION for the following compound: Cn1cccc1CN(C(=O)CC(CC(=O)O)c1cccs1)C1CC1 (centres undefined)
Out: -42.1

In: Query INHIBITION for `c1ccc(CCN2CCn3cc(Cn4cccn4)nc3C2)cc1`
Out: 24.9

In: For the compound Cc1ccc(S(=O)(=O)N(CC2CCOC2)C2CC2)cc1N(C)C (centres undefined) , give its measured INHIBITION value.
Out: 17.1

In: Supply reported INHIBITION belonging to this compound: `CC[C@H](Cn1ncc2ccccc2c1=O)NC(=O)c1ccccn1`
Out: 31.3

In: Write down INHIBITION measured for item `CNc1ccnc(NCCC(=O)Nc2ccccc2OC)n1`
Out: 49.7

In: Give the measured INHIBITION for `O=C(c1cscn1)N1CC[C@]2(C[C@@H](OCCN3CCCC3)CO2)C1`
Out: 43.2

In: Return value of INHIBITION for input `COc1ccc(C)cc1NC(=O)CNc1ccn(CC(N)=O)n1` , no commentary.
Out: -41.6

In: // Input: `CN(C)CC(=O)N1C[C@@H]2CC[C@H](Oc3ccccc3)[C@@H]2C1` . Output its INHIBITION only.
Out: -21.4

In: Tell me its INHIBITION given Cc1cnc(C)c(N2CCN(CC3CCCO3)CC2)n1 (centres undefined) as the entry.
Out: 4.93

In: Using the record for CC(O)c1cnn(-c2ccccc2)c1 (centres undefined) , state its measured INHIBITION.
Out: -6.04

In: Input CCCC1C=CCN1C(=O)c1cc(COc2ccccc2)[nH]n1 (centres undefined) , output reported INHIBITION.
Out: -1.49

In: Item CCN1CCN(CCCNC(=O)NC(C)c2nncn2C)CC1 (centres undefined) : provide INHIBITION
Out: 40

In: Fill in reported INHIBITION for this entry: `Cc1cnc(C)c(N2CCN(Cc3ccc(C)c(C)c3)CC2)n1`
Out: 75

In: Please look at this compound and report its INHIBITION: CCOCC1CN(Cc2ccsc2)Cc2cnn(C)c21 (centres undefined)
Out: 36.2

In: Specify measured INHIBITION for `CNc1ccnc(NCC(=O)Nc2cc(C)ccc2OC)n1` .
Out: 53

In: Given CC1CC(=O)c2cnc3nc(N4CCOCC4)[nH]c(=O)c3c2C1 (centres undefined) , respond with its INHIBITION.
Out: 22

In: Give the measured INHIBITION for CC(NC(=O)NCCCN1CCCCCC1)c1nncn1C (centres undefined)
Out: 30.2

In: Quote INHIBITION reported for `CCOc1ccc(CCCC(=O)N2CCC(c3nnn[nH]3)CC2)cc1C` please.
Out: 17.7

In: Input `Cn1ncnc1-c1ccnc(NCc2ccncc2)n1` , output reported INHIBITION.
Out: 14.5

In: Tell me INHIBITION reported for `CCn1nc(C)c2nc(C(C)C)nc(NCC(C)C)c21`
Out: 47.4

In: Look up and report measured INHIBITION for this entry: `Cc1ccc(CN2CCC(Cc3nnc(CO)n3C)CC2)cc1C`
Out: 4.48

In: Check the records and state INHIBITION for Cc1cccc2c1NC(c1cnc(C3CCC3)s1)NC2=O (centres undefined)
Out: 39.3

In: Name the recorded INHIBITION of the item `COC(=O)c1cc(CN2CCN(c3ncccc3C)CC2)ccc1O` in your answer.
Out: 71

In: Provide measured INHIBITION value, entry: `Cc1cnc(CNC(=O)CCCn2cnc3ccccc3c2=O)cn1`
Out: 34.6

In: Consider the compound `N#Cc1csc(CNCCOc2ncccc2Cl)c1` . State its measured INHIBITION.
Out: -23.2

In: Name the recorded INHIBITION of the compound listed here: `COC(=O)c1cc(C)nc(N2CCN(Cc3ccn(C(C)C)c3)CC2)n1`
Out: 24.2

In: Report INHIBITION for `Cn1ccnc1CNc1nccc(-c2ncnn2C)n1`
Out: -29

In: Please report INHIBITION for the following compound: `Cc1cccnc1N1CCN(Cc2cc(O)c3cccc(F)c3n2)CC1`
Out: 18.6

In: Given the compound CCN(Cc1ccncc1)C(=O)C(C)n1ccnc1C(C)C (centres undefined) , write its reported INHIBITION.
Out: 10.3

In: Answer with the recorded INHIBITION for the compound listed here: CC(NC(=O)NCCN1CCCC1)c1nncn1C (centres undefined)
Out: 56.4

In: Read off the recorded INHIBITION for CC(C)C(=O)N1CCCC(Cc2ccccn2)C1 (centres undefined)
Out: 25

In: Please look at this compound and report its INHIBITION: `Cc1cccc2c1cnn2CCCNC(=O)c1cnn(C)c1`
Out: -17.2

In: Output INHIBITION of Cc1nn(C)c(C)c1C1COCCN1C(=O)c1cc(F)ccc1F (centres undefined)
Out: -2.19

In: Please report INHIBITION for the following compound: `N#Cc1cccc(N2CCC(CO)(CCCc3ccccc3)CC2)n1`
Out: 22

In: Could you please provide reported INHIBITION for O=C1N(CC2CC2)C(c2cncs2)NC12CCCC2 (centres undefined) ? Thanks!
Out: 49

In: Give the measured INHIBITION for O=C(Cc1cccnc1)N1CCCC2(CCN(C3CCOCC3)C2)C1 (centres undefined)
Out: -62.2

In: Tell me its INHIBITION given Cc1cccc(C)c1OCCNC(=O)NC(C)c1nncn1C (centres undefined) as the entry.
Out: 50.4

In: State its INHIBITION: `CC(C)N(CC(N)=O)C(=O)CCC(=O)c1ccc(F)cc1F`
Out: 23.7

In: Hello, please tell me recorded INHIBITION for this one: COc1ccc(C2CCCN2C(=O)c2ccnc(NC3CC3)c2)cc1 (centres undefined)
Out: -59.3

In: Respond only with INHIBITION recorded for Cc1nn(C)c(Cl)c1C1CCCN1C(=O)CCNc1ncccn1 (centres undefined)
Out: -35.7

In: Output measured INHIBITION for this item: `C[C@@H]1CN(C(=O)c2ccc[nH]2)C[C@]12CCN(CCN1CCCC1)C2=O`
Out: 48.4

In: Give the value of INHIBITION reported for the following: `O=C(NCc1cccs1)c1nc2c(o1)CN(C(=O)c1cccnc1)C2`
Out: -4.4

In: Quote INHIBITION reported for `Cc1cc(C(=O)NC2=NCCS2)c(C)n1-c1ccccn1` please.
Out: 42.1
